Target of assay: T1, human PD-L1 (soluble protein of the kinetic measurements) (human, UniProt Q9NZQ7 19-238, limits assumed)
T1 construct: kept apart from the His-tag protein of the ELISA; also called hPD-L1
T1 sequence (Q9NZQ7 19-238 limits assumed): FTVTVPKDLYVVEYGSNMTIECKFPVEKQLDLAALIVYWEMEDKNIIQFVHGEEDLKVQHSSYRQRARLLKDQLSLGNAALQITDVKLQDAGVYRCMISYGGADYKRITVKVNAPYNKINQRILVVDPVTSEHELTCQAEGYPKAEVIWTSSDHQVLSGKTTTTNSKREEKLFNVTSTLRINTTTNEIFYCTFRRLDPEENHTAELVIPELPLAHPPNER
Assay info: BLI (Octet), antibody fixed on biosensor, PD-L1 in solution
Assay metric: koff

For the binder shown here, ME4.A12 anti-PD-L1 antibody (IgG form) (antibody, V domains shown) VH: QVQLVESGAEVKKPGSSVKVSCKASGGTFNNYAVSWVRQAPGQGLEWMGRIIPILGIANYAQTFQGRVTITADKSTTTAYMELSSLRSEDTAVYYCARSHWGYAHGAFDIWGQGTMVTVSS VL: QFVLTQPPSVSGAPGQRVTISCTGSSSNIGAGYDVHWYQQLPGTAPKVLIYGNSDRPSGVPDRFSGSKSGTSASLAITGLQGEDKATYYCQSYDSRLSGPVFGTGTKVTVLG , give the reported koff.
2.2e-05 s⁻¹

Return reported koff; argument: ME4.A2 anti-PD-L1 antibody (IgG form) (antibody, V domains shown) VH: QVQLVESGAEVKKPGSSVKVSCKASGGTFNNYAVSWVRQAPGQGLEWMGRIIPILGIANYAQTFQGRVTITADKSTTTAYMELSSLRSEDTAVYYCARSSRGYAHGAFDIWGQGTMVTVSS VL: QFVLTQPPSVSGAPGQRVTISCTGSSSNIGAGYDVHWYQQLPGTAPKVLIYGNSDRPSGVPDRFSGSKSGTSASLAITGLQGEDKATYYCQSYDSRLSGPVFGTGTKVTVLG
1.02e-05 s⁻¹

Entry under review: ME4.B12 anti-PD-L1 antibody (IgG form) (antibody, V domains shown) VH: QVQLVESGAEVKKPGSSVKVSCKASGGTFNNYAVSWVRQAPGQGLEWMGRIIPILGIANYAQTFQGRVTITADKSTTTAYMELSSLRSEDTAVYYCARSSFGYSVGAFDIWGQGTMVTVSS VL: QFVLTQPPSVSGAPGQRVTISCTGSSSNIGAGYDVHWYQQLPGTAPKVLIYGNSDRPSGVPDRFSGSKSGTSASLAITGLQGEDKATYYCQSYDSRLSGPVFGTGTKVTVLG . Reported koff?
3.19e-06 s⁻¹
